biological target: renin (Homo sapiens); test: in vitro renin inhibitory activity, radioimmunoassay for angiotensin I; type: biochemical; conditions: renin incubated two hours at 37° with substrate angiotensinogen; angiotensin I by radioimmunoassay; molar concentration causing 50% inhibition
Sequence (P00797 67-406, species assumed): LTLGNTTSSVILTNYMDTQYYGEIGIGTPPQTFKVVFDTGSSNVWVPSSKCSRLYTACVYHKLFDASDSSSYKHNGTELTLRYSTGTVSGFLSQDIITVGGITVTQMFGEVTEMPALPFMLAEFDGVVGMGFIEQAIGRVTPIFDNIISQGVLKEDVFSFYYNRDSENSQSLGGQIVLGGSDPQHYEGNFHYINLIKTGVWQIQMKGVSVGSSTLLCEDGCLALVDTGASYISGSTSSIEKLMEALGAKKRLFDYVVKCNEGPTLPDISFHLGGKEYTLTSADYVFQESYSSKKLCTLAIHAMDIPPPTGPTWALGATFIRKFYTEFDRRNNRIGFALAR
Assignment: determine reported IC50 for the given substances.
Give bare numbers, in nM.

Solved entries:
Me2 NSO2 --PHE--PGY--STA--NHCH2 CH(CH3)CH2 CH3 [Me2 NSO2 PHEPGYSTANHCH2 CH(CH3)CH2 CH3]	34
MeNSO2 PHEPGYCYSTANHCH2 CH(CH3)CH2 CH3	1.1

Then there is this substance:
Q: Param readout = IC50; param system = renin (Homo sapiens); param query = MeNSO2 PHEALGCYSTANHCH2 CH(CH3)CH2 CH3 ; response: value
Ans: 1.5
